Consider the following substances; for each one, report its EC50 ratios to Gal-(1-15), GAL2R ß-Arrestin.
# experimentalSystem: GAL2R (Homo sapiens)
# Sequence (O43603 whole entry, species assumed): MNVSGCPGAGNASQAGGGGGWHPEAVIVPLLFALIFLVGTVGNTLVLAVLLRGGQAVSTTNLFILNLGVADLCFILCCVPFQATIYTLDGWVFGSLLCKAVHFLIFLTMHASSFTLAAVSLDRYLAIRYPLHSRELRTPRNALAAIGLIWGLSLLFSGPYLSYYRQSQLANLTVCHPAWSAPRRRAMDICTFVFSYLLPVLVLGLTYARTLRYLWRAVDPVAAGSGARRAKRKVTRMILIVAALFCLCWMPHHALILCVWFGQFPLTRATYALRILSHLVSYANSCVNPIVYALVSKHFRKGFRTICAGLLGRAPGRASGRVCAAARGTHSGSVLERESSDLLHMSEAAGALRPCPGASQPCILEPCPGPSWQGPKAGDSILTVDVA
# assayNotes: PathHunter eXpress β-arrestin recruitment assay, GAL2R
# Assay type: cell-based
# Parameters: expressed in transfected cells
# runParameters: Table 3; CHO-K1 cells co-expressing GAL2R and β-arrestin 2; 10 µM to 5 nM; (average) ratio, (n) in cell = number of assays; NA = ratio above 1000
Square brackets hold non-standard residues; d marks the D form. Ends that are not written are not given here. pGlu = O=C1CC[C@@H](C(=O)O)N1

Reported EC50 ratios to Gal-(1-15), GAL2R ß-Arrestin ( GWNLNAAGYLLATHACG (also: sidechain bridge or staple (positions not given here)) [Variant M89, methyllanthionine-containing galanin variant produced in L. lactis] ) = 3 (1)

Reported EC50 ratios to Gal-(1-15), GAL2R ß-Arrestin ( GWNLNAAGYLLATHACGNHR (also: sidechain bridge or staple (positions not given here)) [Variant M50, methyllanthionine-containing galanin variant produced in L. lactis] ) = 0.5 (1)

Reported EC50 ratios to Gal-(1-15), GAL2R ß-Arrestin ( GWNLNAAGYLLGPTAVC (also: sidechain bridge or staple (positions not given here)) [Variant M85, methyllanthionine-containing galanin variant produced in L. lactis] ) = 6.2 (1)

Reported EC50 ratios to Gal-(1-15), GAL2R ß-Arrestin ( [pGlu]WNLNAAGYLLGATAVC (also: sidechain bridge or staple (positions not given here)) [Variant M91, pyroglutamate- and methyllanthionine-containing galanin variant] ) = 1.5 (1)

Reported EC50 ratios to Gal-(1-15), GAL2R ß-Arrestin ( [pGlu]WNLNAAGYLLGPTAVC (also: sidechain bridge or staple (positions not given here)) [Variant M87, pyroglutamate- and methyllanthionine-containing galanin variant] ) = 4.8 (1)

Reported EC50 ratios to Gal-(1-15), GAL2R ß-Arrestin ( GWNLNAAGYLLGATAVC (also: sidechain bridge or staple (positions not given here)) [Variant M90, methyllanthionine-containing galanin variant produced in L. lactis] ) = 3.2 (1)

Reported EC50 ratios to Gal-(1-15), GAL2R ß-Arrestin ( GWNLNAAGYLLGPHTVGCHR (also: sidechain bridge or staple (positions not given here)) [Variant M52, methyllanthionine-containing galanin variant produced in L. lactis] ) = 0.6 (1)

Reported EC50 ratios to Gal-(1-15), GAL2R ß-Arrestin ( [pGlu]WNLNAAGYLLGATAVCNH (also: sidechain bridge or staple (positions not given here)) [Variant M54tr, pyroglutamate- and methyllanthionine-containing galanin variant] ) = 1 (1)

Reported EC50 ratios to Gal-(1-15), GAL2R ß-Arrestin ( GWNLNAAGYLLGPHATGNCR (also: sidechain bridge or staple (positions not given here)) [Variant M74, methyllanthionine-containing galanin variant produced in L. lactis] ) = 2.6 (1)

Reported EC50 ratios to Gal-(1-15), GAL2R ß-Arrestin ( [pGlu]WNLNAAGYLLGATAVGCHR (also: sidechain bridge or staple (positions not given here)) [Variant M76b, pyroglutamate- and methyllanthionine-containing galanin variant] ) = 0.5 (1)

Reported EC50 ratios to Gal-(1-15), GAL2R ß-Arrestin ( GWNLNAAGYLLGATAVGCHR (also: sidechain bridge or staple (positions not given here)) [Variant M76, methyllanthionine-containing galanin variant produced in L. lactis] ) = 1.0 (1)

Reported EC50 ratios to Gal-(1-15), GAL2R ß-Arrestin ( [pGlu]WNLNAAGYLLGPHTVGCHR (also: sidechain bridge or staple (positions not given here)) [Variant M83, pyroglutamate- and methyllanthionine-containing galanin variant] ) = 78 (1)

Reported EC50 ratios to Gal-(1-15), GAL2R ß-Arrestin ( GWNLNAAGYLLGATAVCNHR (also: sidechain bridge or staple (positions not given here)) [Variant M51, methyllanthionine-containing galanin variant produced in L. lactis] ) = 0.6 (2)
